Ref: ChEMBL document CHEMBL3988442

molecular target: Arginase-2, mitochondrial (Homo sapiens); experiment: in vitro enzyme assay to detect the production of urea directly proportional to the activity of Arginase II; assay type: functional; design: scale not given: in the data most compounds retested in dose-response had high values; conditions: 33.3 µM
Some compounds, each annotated with its measured Percent Effect.

{"columns": ["compound", "unitsSymbol", "Percent Effect"],
 "data": [
  ["CCOC(C)c1nc(CN2CCN(c3nccc(C)n3)CC2)cs1 (stereo unspecified)", "%", -0.476],
  ["CCN1CC(C(=O)NC(C)(C)CC(C)(C)C)CC1=O (stereo unspecified)", "%", 21.1],
  ["Cc1ccc([C@@H]2CN(C(=O)c3ccc[nH]3)C[C@H]2NC(=O)C2CC2)cc1", "%", -3.85],
  ["CC(c1nc(C2CC2)no1)N1CCN(Cc2cccc(C#N)c2)CC1 (stereo unspecified)", "%", -4.1],
  ["CC(=O)N1CCOCC2(CCN(Cc3ccc(C)s3)CC2)C1", "%", -51.8],
  ["O=C(NC1CC1)[C@@H]1CCO[C@@H]2CCN(C3CCOCC3)C[C@H]21", "%", 5.52],
  ["c1nc2c(c(C3CC3)n1)CCN(Cc1ccoc1)CC2", "%", -0.798],
  ["Cc1cc(CN(C)C(=O)NC2CCCN(c3ncccn3)C2)no1 (stereo unspecified)", "%", -1.92],
  ["CC(C)(C)NC(=O)C1CSCN1S(=O)(=O)c1ccc(F)cc1 (stereo unspecified)", "%", -4.52],
  ["Cn1nc(CNC(=O)C2COc3ccccc3O2)cc1C1CC1 (stereo unspecified)", "%", -3.23],
  ["CC(C)SCC(=O)N1CCc2c(nc(N(C)C)nc2N(C)C)C1", "%", 5.73],
  ["COc1ccc(C2=CCN(C(=O)CN(C)Cc3ccoc3)CC2)cc1", "%", -5.32],
  ["Cc1ccc(N2CCC3(CCCN(C(=O)c4cccnc4)C3)C2)nn1 (stereo unspecified)", "%", 0.405],
  ["Cc1ccccc1CC(=O)N(C)C1CCN(c2ccccn2)CC1", "%", -1.33],
  ["O=C(c1cccs1)N1CC[C@H](O)[C@@H]1Cc1ccccc1", "%", 0.457],
  ["CCN(Cc1ccc2c(c1)OCO2)C(=O)CCc1c(C)nc(C)[nH]c1=O", "%", 9.96],
  ["Cn1cc(C2COC3(CCN(C(=O)Cn4cccn4)CC3)C2)cn1 (stereo unspecified)", "%", 2.23],
  ["CC(C)(C)c1nnc(CN2CCOC(Cn3cccn3)C2)o1 (stereo unspecified)", "%", 1.9],
  ["Cc1nc(CN2CCCC(CCc3ccc(F)cc3F)C2)c[nH]1 (stereo unspecified)", "%", 1.05],
  ["O=C(c1ccc(OCC2CC2)nc1)N1CCCC(n2ccnc2)C1 (stereo unspecified)", "%", 6.97],
  ["Cc1ccc(-c2nc(CN3CCN(S(=O)(=O)N(C)C)CC3)cs2)o1", "%", 1.94],
  ["CCn1c(NCc2ccco2)nc2c(C)nn(C)c2c1=O", "%", 92.8],
  ["Cc1cc(C(=O)NCc2ccc(N3CCCC(C(N)=O)C3)cc2)[nH]n1 (stereo unspecified)", "%", -0.887],
  ["Cc1cc(C)nc(N2Cc3cnn(Cc4ccc(F)cc4)c3C2)n1", "%", -2.6],
  ["CCc1nc(C2CCCN2CC(=O)Nc2c(C)n[nH]c2C)no1 (stereo unspecified)", "%", 5.34],
  ["CN(CCO)Cc1nnc(C2CCN(C(=O)c3cccnc3)CC2)n1C", "%", 4.69],
  ["CC(C)NC(=O)N1CC[C@@H]2CN(Cc3ccccc3)S(=O)(=O)[C@@H]2CC1", "%", 0.319],
  ["O=C(CCN1C(=O)CCC1=O)Nc1cnn(-c2ccccc2Cl)c1", "%", -0.185],
  ["CN(Cc1cccs1)C(=O)CN1CCCC1Cn1cncn1 (stereo unspecified)", "%", -5.52],
  ["CS(=O)(=O)N1CCC2(CC1)CC(CC(=O)NC1CC1)c1ccccc12 (stereo unspecified)", "%", -3.24],
  ["COc1cccc(N2CCN(C(=O)[C@H](O)C3CCCCC3)CC2=O)c1", "%", 2.38],
  ["CC(C)NC(=O)C1CN(C(=O)Nc2ccccc2)CC12CCOCC2 (stereo unspecified)", "%", 1.22],
  ["Cc1cccc(C(=O)NCc2ccc(N3CCCCC3)nc2)n1", "%", -1.5],
  ["Cn1ccc2ccnc(CC3CN(C(=O)C4CCC(F)(F)CC4)C3)c21", "%", -0.696],
  ["CC(Nc1cccc(CN2CCOC2=O)c1)C(=O)NC(N)=O (stereo unspecified)", "%", -4.1],
  ["COc1cccc(CN2CCC3(CCN(C(=O)[C@H]4CCCO4)CC3)C2)c1", "%", 0],
  ["CC(CN1CCOCC1)NCC1CCN(c2cnn(C)c(=O)c2)CC1 (stereo unspecified)", "%", -0.883],
  ["COc1c(C2CCCN2C(=O)c2cccc(C(N)=O)c2)c(C)nn1C (stereo unspecified)", "%", -2.32],
  ["CN(Cc1cccnc1)CC1CCCN1c1cccnn1 (stereo unspecified)", "%", 0.21],
  ["CN(C)[C@@H]1CN(Cc2ccoc2)C[C@@H]2CCCO[C@@H]21", "%", -1.62],
  ["CC(C)C(C)NC(=O)Nc1ccccc1CN1CCOCC1 (stereo unspecified)", "%", 2.23],
  ["COc1ccc(OCC(=O)NC(C)c2ccccc2)c(C(=O)O)c1 (stereo unspecified)", "%", -0.744],
  ["CCCn1nc2c(cc1=O)CN(CC(=O)Nc1ccncc1)CC2", "%", 2.25],
  ["Cc1ccc(NC2CCN(C(=O)Cc3csc(C)n3)CC2)nn1", "%", 1.2],
  ["Cc1cc(C)n(CC(=O)N2CCC(c3nc(C)no3)CC2)n1", "%", 3.09],
  ["Cc1ccc(CN2CCC3(CC(C(=O)NCC4CC4)=NO3)C2)cc1C (stereo unspecified)", "%", -64]
]}
